Target: pooled human IgG (human); note: test concentration or dose not given here
Test: cell-based or functional assay
readout kind: Enzyme Activity Endpoint Assay (purified): Fc (ng/µL)

1. PRT-216 (enzyme) MEVVEVWPYGQNPNGKTEILSQTEDSESLQRLRDIEDFQAEKKKENVVYTKWLDGVDVDDHDFRKIVDGNTEYYATPLLNGRGWYDINKDFNRDSDKCAAAVAANMFHYWLDQNRDNIDRFLRQSPEKHGIIELPDGQLKLSDFLNTYESDDGYRDKSKLFDFISNNFNGPVWTDKLLDNYINGYGYNYKYGRTIEDPTKNNSKINFFKKVFNGKILTDNHSIRNYNTFSDLLSEALYTGKAIGLSYGPAGLRHSLGHIISVWGADLDADGNVVAIYVTDSDDKKLTIGDERVGLKRYKISYDDENRARLTAYEENDNTGGQIRGLETLDTGKQAWADYFDKTEQTGTDQAEQLEHHHHHH | 0
2. PRT-210 (enzyme) MEVVEVWPYGQNPNGKTEILSQTEDSESLQRLRDIEDFQAEKKKQNVVYTKWLDGVTVDDHDFRKITDGNTAYYATPLLNGRGFYDINKDFNRDSDKCAAAVAANMFHYWLDQNRDNVDRFLKQNPEKHGIIELPDGQLKLSDFLNTYESDDGYRDKSKLFDFISNNFNGPVWTDKLLDNYINGYAYNYKYGRTIEDPTKNTSKINFFKEVFNEKLLTNNHSIRNQNEFSDLLSEALYTGKAIGLSYGPAGLRHSLGHIISVWGADFDADGNVVAIYVTDSDDKKLTIGDERVGLKRYKISSDDEGRARLTAYTEKHNTGGQIRGLYTLDTGKQEWADYFDKTEQTGTDQAEQLEHHHHHH | 87
